B1: TPR t1 (parent)
chain: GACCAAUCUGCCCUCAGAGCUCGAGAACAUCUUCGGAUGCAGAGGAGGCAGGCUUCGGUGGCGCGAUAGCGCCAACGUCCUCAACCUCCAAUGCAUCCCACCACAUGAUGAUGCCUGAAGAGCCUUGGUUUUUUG

variants of: B1; assay: polymerase ribozyme fitness, log enrichment relative to wild type (log ratio); higher = more active; in vitro selection for triplet polymerase activity
metric: polymerase ribozyme fitness (log ratio)

INSERT INTO measurements (alteration, metric, endpoint_value) VALUES
  ('C28U C101G', 'polymerase ribozyme fitness (log ratio)', -5.15),
  ('A84U G110C U130C', 'polymerase ribozyme fitness (log ratio)', -4.16),
  ('C11G A43G C85A C89G C94U', 'polymerase ribozyme fitness (log ratio)', -2.52),
  ('A5C U7C A74C A90U', 'polymerase ribozyme fitness (log ratio)', -1.47),
  ('U14G C56A G120C', 'polymerase ribozyme fitness (log ratio)', -0.0635),
  ('G10U A27U C76G U109G', 'polymerase ribozyme fitness (log ratio)', -5.77),
  ('C56A A100G C102U U112C G127C', 'polymerase ribozyme fitness (log ratio)', -2.2),
  ('U96A C98U', 'polymerase ribozyme fitness (log ratio)', -3.4),
  ('C28G G60U U130G', 'polymerase ribozyme fitness (log ratio)', -2.82),
  ('A2G G63C U116A', 'polymerase ribozyme fitness (log ratio)', -4.03),
  ('U14C U67A G69A', 'polymerase ribozyme fitness (log ratio)', -5.17);
